Reference for the values: PubChem BioAssay AID2060898

Field: viability, T/C. Provide a value for each of the molecules that follow.
test system: 616215-338-R-J1-PDC complex spheroid viability; experiment: Anticancer human tumor 616215-338-R-J1-PDC patient-derived colon adenocarcinoma cell line growth inhibition [RAS]; settings: second compound 0.003 µM; first compound 10 µM; stronger effect = lower value
Give your result in % as a bare value.

Give recorded viability, T/C. CCC(CC)c1cc(NC2CCC(N)C2)n2nccc2n1 (centres undefined) + CCn1c(-c2cc(N3CCN(C)CC3)cnc2C(C)OC)c2c3cc(ccc31)-c1csc(n1)CC(NC(=O)C1CC1C)C(=O)N1CCCC(N1)C(=O)OCC(C)(C)C2
0.22

Could you please provide reported viability, T/C for CC1(O)CCCC1n1c(=O)c(C(F)F)cc2cnc(NC3CCN(S(C)(=O)=O)CC3)nc21 (centres undefined) + CCn1c(-c2cccnc2C(C)OC)c2c3cc(ccc31)N1CCOC(CC(NC(=O)C(C(C)C)N(C)C(=O)C3(F)CCN(C(=O)C#CC(C)(C)N(C)C)CC3)C(=O)N3CCCC(N3)C(=O)OCC(C)(C)C2)C1 ? Thanks!
3.17

Using the record for CC(=O)OC12COC1CC(O)C1(C)C(=O)C(O)C3=C(C)C(OC(=O)C(O)C(NC(=O)OC(C)(C)C)c4ccccc4)CC(O)(C(OC(=O)c4ccccc4)C21)C3(C)C (centres undefined) + CCn1c(-c2cccnc2C(C)OC)c2c3cc(ccc31)N1CCOC(CC(NC(=O)C(C(C)C)N(C)C(=O)C3(F)CCN(C(=O)C#CC(C)(C)N(C)C)CC3)C(=O)N3CCCC(N3)C(=O)OCC(C)(C)C2)C1 , state its measured viability, T/C.
27

Please list viability, T/C recorded for the molecule C[C@@H](NC(=O)c1ncnc(N)c1Cl)c1ncc(C(=O)Nc2cc(C(F)(F)F)c(Cl)cn2)s1 + CCn1c(-c2cc(N3CCN(C)CC3)cnc2C(C)OC)c2c3cc(ccc31)-c1csc(n1)CC(NC(=O)C1CC1C)C(=O)N1CCCC(N1)C(=O)OCC(C)(C)C2
42.6

---

system: 616215-338-R-J1-PDC complex spheroid viability; assay: Anticancer human tumor 616215-338-R-J1-PDC cell line growth inhibition [RAS]; conditions: curve of first compound; second compound 0.00949 µM;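 note: spheroids exposed to agents for seven days before viability readout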
pIC50: −log10 of the molar value.
Please provide measured pIC50 for the entries that follow.

Kindly indicate its recorded pIC50. Item: CCN1CCN(Cc2ccc(Nc3ncc(F)c(-c4cc(F)c5nc(C)n(C(C)C)c5c4)n3)nc2)CC1 + CCn1c(-c2cccnc2C(C)OC)c2c3cc(ccc31)N1CCOC(CC(NC(=O)C(C(C)C)N(C)C(=O)C3(F)CCN(C(=O)C#CC(C)(C)N(C)C)CC3)C(=O)N3CCCC(N3)C(=O)OCC(C)(C)C2)C1
< 6.00

Complete the entry with pIC50 for CC(C)n1nc(-c2ccc3oc(N)nc3c2)c2c(N)ncnc21 + CCn1c(-c2cccnc2C(C)OC)c2c3cc(ccc31)N1CCOC(CC(NC(=O)C(C(C)C)N(C)C(=O)C3(F)CCN(C(=O)C#CC(C)(C)N(C)C)CC3)C(=O)N3CCCC(N3)C(=O)OCC(C)(C)C2)C1
< 7.00

---

test system: 616215-338-R-J1-PDC complex spheroid viability; assay: Anticancer human tumor 616215-338-R-J1-PDC cell line growth inhibition [RAS]; details: compound alone; run of 06/10/2024;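 note: spheroids exposed to agents for seven days before viability readout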
Please go through the items and note down their IC50.

Check the records and state IC50 for C=CC(=O)N1CCN(c2nc(OCC3CCCN3C)nc3c(F)c(-c4nc(N)cc(C)c4C(F)(F)F)c(Cl)cc23)C(C)C1 (configuration not stated)
> 1 µM

In one line, give reported IC50 of the entry C#Cc1c(F)ccc2cc(O)cc(-c3ncc4c(N5CC6CCC(C5)N6)nc(OCC56CCCN5CC(F)C6)nc4c3F)c12 (configuration not stated) .
> 10 µM
